Quick list: DC50 per entry.
- system name: SMARCA2 (Homo sapiens)
- Construct: endogenous in cells
- Sequence (P51531 whole entry, species assumed): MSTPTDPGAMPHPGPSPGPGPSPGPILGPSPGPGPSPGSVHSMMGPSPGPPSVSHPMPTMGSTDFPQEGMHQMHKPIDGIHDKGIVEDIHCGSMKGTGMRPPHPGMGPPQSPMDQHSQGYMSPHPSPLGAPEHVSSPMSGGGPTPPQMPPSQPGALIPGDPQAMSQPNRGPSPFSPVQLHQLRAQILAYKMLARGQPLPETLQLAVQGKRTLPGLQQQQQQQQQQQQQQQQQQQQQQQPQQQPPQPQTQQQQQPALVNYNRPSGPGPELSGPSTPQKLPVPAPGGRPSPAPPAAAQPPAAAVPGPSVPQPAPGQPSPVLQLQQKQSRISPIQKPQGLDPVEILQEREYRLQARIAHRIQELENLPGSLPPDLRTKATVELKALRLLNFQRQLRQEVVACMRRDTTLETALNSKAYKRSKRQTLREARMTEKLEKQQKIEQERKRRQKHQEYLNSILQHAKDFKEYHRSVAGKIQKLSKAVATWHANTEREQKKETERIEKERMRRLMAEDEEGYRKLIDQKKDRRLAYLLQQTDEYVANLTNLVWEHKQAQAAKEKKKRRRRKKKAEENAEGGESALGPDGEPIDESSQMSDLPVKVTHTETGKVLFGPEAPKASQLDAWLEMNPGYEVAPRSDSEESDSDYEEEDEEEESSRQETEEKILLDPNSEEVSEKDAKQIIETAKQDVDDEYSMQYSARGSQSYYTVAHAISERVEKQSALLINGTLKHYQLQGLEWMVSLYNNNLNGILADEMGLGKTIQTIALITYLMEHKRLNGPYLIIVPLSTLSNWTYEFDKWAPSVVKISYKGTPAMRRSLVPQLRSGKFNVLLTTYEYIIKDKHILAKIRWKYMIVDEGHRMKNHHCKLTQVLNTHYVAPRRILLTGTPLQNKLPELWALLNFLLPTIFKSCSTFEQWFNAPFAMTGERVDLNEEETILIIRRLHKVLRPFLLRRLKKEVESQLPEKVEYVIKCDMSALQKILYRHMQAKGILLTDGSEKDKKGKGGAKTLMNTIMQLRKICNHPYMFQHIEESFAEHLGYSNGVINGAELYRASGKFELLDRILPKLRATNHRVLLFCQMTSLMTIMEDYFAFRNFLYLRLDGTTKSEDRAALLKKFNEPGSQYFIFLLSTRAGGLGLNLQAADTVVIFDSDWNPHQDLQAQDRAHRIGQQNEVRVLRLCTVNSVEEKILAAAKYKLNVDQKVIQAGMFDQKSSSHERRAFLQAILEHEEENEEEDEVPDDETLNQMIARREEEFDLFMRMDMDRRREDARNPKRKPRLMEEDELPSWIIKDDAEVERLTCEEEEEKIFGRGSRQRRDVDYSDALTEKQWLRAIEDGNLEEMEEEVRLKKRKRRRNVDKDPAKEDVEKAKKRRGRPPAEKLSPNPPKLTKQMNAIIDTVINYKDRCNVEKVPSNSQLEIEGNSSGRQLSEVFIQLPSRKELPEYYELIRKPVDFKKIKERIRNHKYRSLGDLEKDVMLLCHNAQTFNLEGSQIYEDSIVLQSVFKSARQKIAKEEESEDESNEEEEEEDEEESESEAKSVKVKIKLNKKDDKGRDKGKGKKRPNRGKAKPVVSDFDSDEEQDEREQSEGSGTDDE
- protocol text: SMARCA2 Cellular Degradation Assay (Western blot analysis on Jess platform)
- Assay type: cell-based
- run conditions: cellular degradation
measured quantity: DC50

{"compound": "Cn1c(=O)n(C2CCC(=O)NC2=O)c2ccc(N3CCC(CN4CCC(NC(=O)C5(c6ccccc6)CCN(c6cnnc(-c7ccccc7O)c6)CC5)CC4)CC3)cc21 (racemic)", "measured quantity": "DC50", "endpoint result": "0.44 nM"}
{"compound": "O=C1CCC(c2ccc(N3CCC(CN4CC5(C4)CN(C(=O)C4(c6ccccc6)CCN(c6cnnc(-c7ccccc7O)c6)CC4)C5)CC3)c(F)c2F)C(=O)N1 (racemic)", "measured quantity": "DC50", "endpoint result": "4.09 nM"}
{"compound": "O=C1CCC(c2ccc(OC3CCN(CC4CCN(C(=O)C5(c6ccccc6)CCN(c6cnnc(-c7ccccc7O)c6)CC5)CC4)CC3)cc2)C(=O)N1 (racemic)", "measured quantity": "DC50", "endpoint result": "144 nM"}

---

- system name: SMARCA2 (Homo sapiens)
- Construct: endogenous in cells
- protocol text: SMARCA2 Cellular Degradation Assay (Western blot analysis on Jess platform)
- Assay type: cell-based
- run conditions: ratio DC50 SMARCA4 / DC50 SMARCA2
measured quantity: Fold Selectivity SMARCA4/2

{"compound": "O=C1CCC(c2ccc(N3C[C@@H]4CN(CC5CCN(C(=O)C6(c7ccccc7)CCN(c7cnnc(-c8ccccc8O)c7)CC6)CC5)C[C@H]4C3)cc2)C(=O)N1 (mixture of isomers) [Example 160]", "system name": "SMARCA2 (Homo sapiens)", "measured quantity": "Fold Selectivity SMARCA4/2", "endpoint result": 9}
{"compound": "Cc1ccn(C2(C(=O)NC3CCN(CC4CCN(c5ccc([C@H]6CCC(=O)NC6=O)cc5)CC4)C4(CCC4)C3)CCN(c3cnnc(-c4ccccc4O)c3)CC2)n1 (stereo partly drawn) [Example 162]", "system name": "SMARCA2 (Homo sapiens)", "measured quantity": "Fold Selectivity SMARCA4/2", "endpoint result": 10}
{"compound": "Cc1ccnn1C1(C(=O)N(C)C2CCN(CCC3CCN(c4ccc(C5CCC(=O)NC5=O)c(F)c4)CC3)CC2)CCN(c2cnnc(-c3ccccc3O)c2)CC1 (racemic) [Example 65]", "system name": "SMARCA2 (Homo sapiens)", "measured quantity": "Fold Selectivity SMARCA4/2", "endpoint result": 27}
{"compound": "O=C1CC[C@@H](c2ccc(O[C@H]3CC[C@H](CN4CC5(C4)CN(C(=O)C4(c6ccccc6)CCN(c6cnnc(-c7ccccc7O)c6)CC4)C5)CC3)cc2)C(=O)N1 (racemic) [Example 166]", "system name": "SMARCA2 (Homo sapiens)", "measured quantity": "Fold Selectivity SMARCA4/2", "endpoint result": 13}
{"compound": "O=C1CC[C@H](c2ccc(N3CCC(CN4CCC5(CC4)CN(C(=O)C4(c6ccccc6)CCN(c6cnnc(-c7ccccc7O)c6)CC4)C5)CC3)nc2)C(=O)N1 [Example 189]", "system name": "SMARCA2 (Homo sapiens)", "measured quantity": "Fold Selectivity SMARCA4/2", "endpoint result": 9}
{"compound": "O=C1CC[C@H](n2ccc3cc(N4CCC(CN5CCC(NC(=O)C6(c7ccccc7)CCN(c7cnnc(-c8ccccc8O)c7)CC6)CC5)CC4)ccc3c2=O)C(=O)N1 [Example 157]", "system name": "SMARCA2 (Homo sapiens)", "measured quantity": "Fold Selectivity SMARCA4/2", "endpoint result": 5}
{"compound": "O=C1CCC(c2ccc(N3CCN(C(=O)CC4CCN(C(=O)C5(c6ccccc6)CCN(c6cnnc(-c7ccccc7O)c6)CC5)CC4)CC3)cc2)C(=O)N1 (racemic) [Example 18]", "system name": "SMARCA2 (Homo sapiens)", "measured quantity": "Fold Selectivity SMARCA4/2", "endpoint result": 1}
{"compound": "C[C@H]1C[C@H](NC(=O)C2(c3ccccc3)CCN(c3cnnc(-c4ccccc4O)c3)CC2)CCN1C(=O)CN1CCC(c2ccc([C@H]3CCC(=O)NC3=O)cc2)CC1 (racemic) [Example 76]", "system name": "SMARCA2 (Homo sapiens)", "measured quantity": "Fold Selectivity SMARCA4/2", "endpoint result": 1049}
{"compound": "Cn1nccc1C1(C(=O)N2CC3(CN(CC4CCN(c5ccc(C6CCC(=O)NC6=O)cc5)CC4)C3)C2)CCN(c2cnnc(-c3ccccc3O)c2)CC1 (racemic) [Example 93]", "system name": "SMARCA2 (Homo sapiens)", "measured quantity": "Fold Selectivity SMARCA4/2", "endpoint result": 474}

---

- system name: SMARCA2 (Homo sapiens)
- Construct: endogenous in cells
- protocol text: SMARCA2 Cellular Degradation Assay (Western blot analysis on Jess platform)
- Type: cell-based
- run conditions: ratio DC50 SMARCA4 / DC50 SMARCA2
Fold Selectivity SMARCA4/2 reference
measured quantity: Fold Selectivity SMARCA4/2

{"compound": "CN(C(=O)C1(c2ccccc2)CCN(c2cnnc(-c3ccccc3O)c2)CC1)C1CCN([C@H]2COC3(CCN(c4ccc([C@H]5CCC(=O)NC5=O)cc4)CC3)C2)CC1 (single isomer, unassigned)", "measured quantity": "Fold Selectivity SMARCA4/2", "endpoint result": 1362}
{"compound": "O=C1CCC(c2ccc(OCC3CCN(C(=O)C4(c5ccccc5)CCN(c5cnnc(-c6ccccc6O)c5)CC4)CC3)cc2)C(=O)N1 (racemic)", "measured quantity": "Fold Selectivity SMARCA4/2", "endpoint result": 21.62}
{"compound": "O=C1CC[C@H](c2ccc(N3CCC(CN4CC(F)C5(C4)CN(C(=O)C4(c6ccccc6)CCN(c6cnnc(-c7ccccc7O)c6)CC4)C5)CC3)cc2)C(=O)N1 (some centres unmarked)", "measured quantity": "Fold Selectivity SMARCA4/2", "endpoint result": 123.86}
{"compound": "CN(C(=O)C1(OC2CC2)CCN(c2cnnc(-c3ccccc3O)c2)CC1)C1CCN(C(=O)CN2CCC(c3ccc([C@@H]4CCC(=O)NC4=O)cc3)CC2)CC1 (racemic)", "measured quantity": "Fold Selectivity SMARCA4/2", "endpoint result": 937}
{"compound": "O=C1CC[C@H](c2ccc(N3CCC(CN4CC[C@H]5[C@H](CCN5C(=O)C5(c6ccccc6)CCN(c6cnnc(-c7ccccc7O)c6)CC5)C4)CC3)cc2)C(=O)N1 (mixture of isomers)", "measured quantity": "Fold Selectivity SMARCA4/2", "endpoint result": 730}

---

- system name: SMARCA2 (Homo sapiens)
- Construct: endogenous in cells
- protocol text: SMARCA2 Cellular Degradation Assay (Western blot analysis on Jess platform)
- Assay type: cell-based
- run conditions: cellular degradation
- Procedure: SMARCA2 Cellular Degradation Assay Western Blot Analysis for SMARCA2 Degradation […] Following normalization, the percentage of SMARCA2 remaining per sample relative to the vehicle control was calculated as follows: […]
Documented Dmax across a set of compounds
measured quantity: Dmax (%)

{"compound": "COC1(C(=O)N(C)C2CCN(CCC3CCN(c4cccc5c4n(C)c(=O)n5C4CCC(=O)NC4=O)CC3)CC2)CCN(c2cnnc(-c3ccccc3O)c2)CC1 (racemic) [Example 68]", "endpoint result": 93.2}
{"compound": "O=C1CC[C@H](c2ccc(N3CCC(CN4CC5CCN(C(=O)C6(c7ccccc7)CCN(c7cnnc(-c8ccccc8O)c7)CC6)CC54)CC3)cc2)C(=O)N1 (some centres unmarked) [Example 38]", "endpoint result": 44.8}
{"compound": "O=C1CC[C@H](c2ccc(N3CCC(CN4CCN(C(=O)C5(c6ccccc6)CCN(c6cnnc(-c7ccccc7O)c6)CC5)CCC4C(F)(F)F)CC3)cc2)C(=O)N1 (some centres unmarked) [Example 53]", "endpoint result": 47.2}
{"compound": "O=C1CCC(c2ccc(OC3CCN(CC4CCN(C(=O)C5(c6ccccc6)CCN(c6cnnc(-c7ccccc7O)c6)CC5)CC4)CC3)cc2)C(=O)N1 (racemic) [Example 12]", "endpoint result": 61.7}
{"compound": "Cc1cc(C2(C(=O)N(C)C3CCN(CCC4CCN(c5ccc(C6CCC(=O)NC6=O)cc5)CC4)CC3)CCN(c3cnnc(-c4ccccc4O)c3)CC2)on1 (racemic) [Example 88]", "endpoint result": 78.4}
{"compound": "O=C1CCC(c2ccc(N3CCC(CCN4CC5(C4)CN(C(=O)C4(OC6CCCCC6)CCN(c6cnnc(-c7ccccc7O)c6)CC4)C5)CC3)cc2)C(=O)N1 (racemic) [Example 121]", "endpoint result": 74.3}
{"compound": "Cn1ccc(OC2(C(=O)N3CC4(CN(CCC5CCN(c6cccc7c6n(C)c(=O)n7C6CCC(=O)NC6=O)CC5)C4)C3)CCN(c3cnnc(-c4ccccc4O)c3)CC2)n1 (racemic) [Example 67]", "endpoint result": 96.2}
{"compound": "O=C1CCC(c2ccc(OCC3CCN(CC4CCN(C(=O)C5(c6ccccc6)CCN(c6cnnc(-c7ccccc7O)c6)CC5)CC4)CC3)cc2)C(=O)N1 (racemic) [Example 11]", "endpoint result": 69.1}
{"compound": "CC1(NC(=O)C2(c3ccccc3)CCN(c3cnnc(-c4ccccc4O)c3)CC2)CCN(CC2CCN(c3ccc(N[C@@H]4CCC(=O)NC4=O)cn3)CC2)CC1 (racemic) [Example 99]", "endpoint result": 57.3}
{"compound": "Cn1ccc(OC2(C(=O)N3CC4(CN(CCC5CCN(c6ccc(C7CCC(=O)NC7=O)c(F)c6)CC5)C4)C3)CCN(c3cnnc(-c4ccccc4O)c3)CC2)n1 (racemic) [Example 66]", "endpoint result": 73.7}
{"compound": "CN(C(=O)C1(c2cnn(C)c2)CCN(c2cnnc(-c3ccccc3O)c2)CC1)C1CCN(CCC2CCN(c3ccc(C4CCC(=O)NC4=O)cc3)CC2)CC1 (racemic) [Example 94]", "endpoint result": 87.3}
